Origin of values: ChEMBL document CHEMBL3763091

Assay: Cytotoxicity against human PC3 cells after 72 hrs by MTT assay
Type: functional, cell-based, PC-3
Conditions: Homo sapiens, PC-3, 72 h; read-out: IC50
pIC50: −log10 of the molar value.
Returns met if the recorded pIC50 is greater than or equal to 5, and not met otherwise.

The examples below pair each entry with its known result.
{"compound structure string": "COc1cc2ncnc(Nc3ccc(F)c(Cl)c3)c2cc1NC(=O)/C=C/c1ccccc1[N+](=O)[O-]", "discrete label": "not met"}
{"compound structure string": "COc1cc(/C=C/C(=O)Nc2cc3c(Nc4ccc(F)c(Cl)c4)ncnc3cc2O[C@H]2CCOC2)cc(OC)c1OC", "discrete label": "not met"}
{"compound structure string": "COc1cc2ncnc(Nc3ccc(F)c(Cl)c3)c2cc1NC(=O)/C=C/c1ccc(F)cc1Cl", "discrete label": "not met"}
{"compound structure string": "CN(C)C/C=C/C(=O)Nc1cc2c(Nc3ccc(F)c(Cl)c3)ncnc2cc1O[C@H]1CCOC1", "discrete label": "met"}
{"compound structure string": "O=C(/C=C/c1cccc(Cl)c1Cl)Nc1cc2c(Nc3ccc(F)c(Cl)c3)ncnc2cc1O[C@H]1CCOC1", "discrete label": "not met"}
{"compound structure string": "N#Cc1ccc(/C=C/C(=O)Nc2cc3c(Nc4ccc(F)c(Cl)c4)ncnc3cc2O[C@H]2CCOC2)cc1", "discrete label": "not met"}

With those in mind, consider the next compound.
[ask] Has `COc1ccc(/C=C/C(=O)Nc2cc3c(Nc4ccc(F)c(Cl)c4)ncnc3cc2O[C@H]2CCOC2)c(OC)c1` a recorded pIC50 greater than or equal to 5?
[reply] met

* * *

Target: Vascular endothelial growth factor receptor 2 (Homo sapiens, UniProt P35968)
Sequence (P35968 whole entry): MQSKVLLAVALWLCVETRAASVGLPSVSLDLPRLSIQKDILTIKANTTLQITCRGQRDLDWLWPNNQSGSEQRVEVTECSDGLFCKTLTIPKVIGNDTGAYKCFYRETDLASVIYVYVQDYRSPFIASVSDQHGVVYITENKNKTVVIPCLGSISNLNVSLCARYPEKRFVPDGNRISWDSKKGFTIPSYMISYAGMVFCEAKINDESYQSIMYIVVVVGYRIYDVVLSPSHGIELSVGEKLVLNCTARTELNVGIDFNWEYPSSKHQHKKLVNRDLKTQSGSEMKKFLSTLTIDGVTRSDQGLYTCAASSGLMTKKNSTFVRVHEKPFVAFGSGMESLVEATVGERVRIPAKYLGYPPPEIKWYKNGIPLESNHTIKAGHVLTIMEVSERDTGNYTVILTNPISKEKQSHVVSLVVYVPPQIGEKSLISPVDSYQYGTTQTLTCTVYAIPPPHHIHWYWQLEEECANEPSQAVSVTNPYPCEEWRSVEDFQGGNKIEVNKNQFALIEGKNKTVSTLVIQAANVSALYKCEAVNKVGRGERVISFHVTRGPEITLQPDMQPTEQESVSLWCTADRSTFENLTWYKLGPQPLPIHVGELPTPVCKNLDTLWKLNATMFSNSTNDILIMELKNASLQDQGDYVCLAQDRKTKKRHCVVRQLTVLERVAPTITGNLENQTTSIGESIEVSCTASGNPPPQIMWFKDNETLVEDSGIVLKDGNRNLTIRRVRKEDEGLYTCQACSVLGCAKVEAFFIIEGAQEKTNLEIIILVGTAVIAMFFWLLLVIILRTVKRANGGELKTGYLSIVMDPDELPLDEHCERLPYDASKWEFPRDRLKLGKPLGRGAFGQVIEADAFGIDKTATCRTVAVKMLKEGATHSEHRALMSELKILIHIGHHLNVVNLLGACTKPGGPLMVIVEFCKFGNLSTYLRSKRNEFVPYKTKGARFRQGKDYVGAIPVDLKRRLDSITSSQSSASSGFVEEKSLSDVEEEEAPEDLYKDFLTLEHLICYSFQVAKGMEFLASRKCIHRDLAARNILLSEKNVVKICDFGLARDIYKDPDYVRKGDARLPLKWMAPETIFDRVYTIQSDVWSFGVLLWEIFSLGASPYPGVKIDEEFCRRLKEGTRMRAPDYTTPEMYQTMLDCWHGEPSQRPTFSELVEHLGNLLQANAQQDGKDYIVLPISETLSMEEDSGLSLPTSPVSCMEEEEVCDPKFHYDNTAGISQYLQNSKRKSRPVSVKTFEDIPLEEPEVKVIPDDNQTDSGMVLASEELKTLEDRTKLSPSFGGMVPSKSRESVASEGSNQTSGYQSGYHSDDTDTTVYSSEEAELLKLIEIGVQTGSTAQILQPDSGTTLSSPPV
measurement label: pIC50
Scale explanation: pIC50 corresponds to minus log10 of a concentration expressed in moles per litre.

[ask] Given `COc1ccc(/C=C/C(=O)Nc2cc3c(Nc4ccc(F)c(Cl)c4)ncnc3cc2O[C@H]2CCOC2)c(OC)c1OC` , report its pIC50 on Vascular endothelial growth factor receptor 2 (Homo sapiens, UniProt P35968).
[reply] 6.32

* * *

Listed here are compounds together with their documented log10 IC50.
Test: Cytotoxicity against human PC3 cells after 72 hrs by MTT assay
Type: functional, cell-based, PC-3
Settings: Homo sapiens, PC-3, 72 h; read-out: IC50
Quick note: numbers are log10 of IC50, with µM as the unit.

These recorded examples may help you get a feel for the data.
{"compound structure string": "COc1ccc(/C=C/C(=O)Nc2cc3c(Nc4ccc(F)c(Cl)c4)ncnc3cc2O[C@H]2CCOC2)cc1", "log10 IC50": 0.35}
{"compound structure string": "O=C(/C=C/c1ccc([N+](=O)[O-])cc1)Nc1cc2c(Nc3ccc(F)c(Cl)c3)ncnc2cc1O[C@H]1CCOC1", "log10 IC50": 1.36}
{"compound structure string": "COc1ccc(OC)c(/C=C/C(=O)Nc2cc3c(Nc4ccc(F)c(Cl)c4)ncnc3cc2OC)c1", "log10 IC50": 1.46}
{"compound structure string": "O=C(/C=C/c1ccc(F)cc1Cl)Nc1cc2c(Nc3ccc(F)c(Cl)c3)ncnc2cc1O[C@H]1CCOC1", "log10 IC50": 0.85}
{"compound structure string": "O=C(/C=C/c1ccc(Br)cc1)Nc1cc2c(Nc3ccc(F)c(Cl)c3)ncnc2cc1O[C@H]1CCOC1", "log10 IC50": 1.45}
{"compound structure string": "O=C(/C=C/c1ccccc1[N+](=O)[O-])Nc1cc2c(Nc3ccc(F)c(Cl)c3)ncnc2cc1O[C@H]1CCOC1", "log10 IC50": 0.89}
{"compound structure string": "COc1cc2ncnc(Nc3ccc(F)c(Cl)c3)c2cc1NC(=O)/C=C/c1cc(OC)c(OC)c(OC)c1", "log10 IC50": 1.58}

Let's switch to this compound now.
[ask] Item `COc1cc(/C=C/C(=O)Nc2cc3c(Nc4ccc(F)c(Cl)c4)ncnc3cc2O[C@H]2CCOC2)cc(OC)c1` : provide log10 IC50
[reply] 1.41

* * *

Biological target: Epidermal growth factor receptor (Homo sapiens, UniProt P00533)
Sequence (P00533 whole entry): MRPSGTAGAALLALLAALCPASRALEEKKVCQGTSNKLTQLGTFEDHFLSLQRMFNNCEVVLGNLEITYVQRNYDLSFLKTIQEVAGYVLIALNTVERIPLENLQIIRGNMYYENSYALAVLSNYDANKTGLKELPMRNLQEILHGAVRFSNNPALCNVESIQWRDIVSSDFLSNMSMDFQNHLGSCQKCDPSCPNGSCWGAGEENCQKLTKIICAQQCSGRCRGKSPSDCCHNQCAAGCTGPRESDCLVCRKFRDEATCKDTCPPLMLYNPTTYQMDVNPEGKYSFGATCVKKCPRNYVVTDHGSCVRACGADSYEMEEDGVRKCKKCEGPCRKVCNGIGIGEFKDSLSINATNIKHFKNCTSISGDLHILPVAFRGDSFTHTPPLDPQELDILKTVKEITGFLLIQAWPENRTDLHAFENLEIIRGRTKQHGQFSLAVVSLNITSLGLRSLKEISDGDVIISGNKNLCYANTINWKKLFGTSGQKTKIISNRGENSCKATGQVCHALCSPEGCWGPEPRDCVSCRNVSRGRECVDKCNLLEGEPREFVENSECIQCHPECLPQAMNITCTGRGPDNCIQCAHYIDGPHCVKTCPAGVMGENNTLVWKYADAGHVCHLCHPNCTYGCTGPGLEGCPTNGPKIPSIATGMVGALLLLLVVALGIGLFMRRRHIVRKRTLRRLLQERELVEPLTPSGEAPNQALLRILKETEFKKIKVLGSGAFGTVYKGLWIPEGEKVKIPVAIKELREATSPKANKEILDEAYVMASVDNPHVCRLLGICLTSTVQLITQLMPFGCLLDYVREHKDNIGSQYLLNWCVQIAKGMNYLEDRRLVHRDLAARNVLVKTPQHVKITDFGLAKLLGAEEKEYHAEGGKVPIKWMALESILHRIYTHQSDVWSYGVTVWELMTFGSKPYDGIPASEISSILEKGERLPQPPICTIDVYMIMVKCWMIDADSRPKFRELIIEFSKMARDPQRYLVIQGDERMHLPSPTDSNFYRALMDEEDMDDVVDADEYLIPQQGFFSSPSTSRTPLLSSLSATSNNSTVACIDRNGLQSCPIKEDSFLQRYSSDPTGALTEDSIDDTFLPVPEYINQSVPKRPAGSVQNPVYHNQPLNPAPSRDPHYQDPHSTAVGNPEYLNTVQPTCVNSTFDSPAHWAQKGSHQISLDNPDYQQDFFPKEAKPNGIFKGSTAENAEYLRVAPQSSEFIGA
measurement label: pIC50
Scale explanation: pIC50 corresponds to minus log10 of a concentration expressed in moles per litre.

[ask] Given `COc1ccc(/C=C/C(=O)Nc2cc3c(Nc4ccc(F)c(Cl)c4)ncnc3cc2O[C@H]2CCOC2)cc1` , report its pIC50 on Epidermal growth factor receptor (Homo sapiens, UniProt P00533).
[reply] 8.04

* * *

Tested on: MCF7
Assay: Cytotoxicity against human MCF7 cells after 72 hrs by MTT assay
Type: functional, cell-based
Details: mcf7
measurement label: IC50

{"compound structure string": "COc1ccc(/C=C/C(=O)Nc2cc3c(Nc4ccc(F)c(Cl)c4)ncnc3cc2OC)cc1", "measured on": "MCF7", "assay result": "Not Active"}
{"compound structure string": "COc1cc2ncnc(Nc3ccc(F)c(Cl)c3)c2cc1NC(=O)/C=C/c1ccc(F)cc1Cl", "measured on": "MCF7", "assay result": "Not Active"}
{"compound structure string": "COc1cc2ncnc(Nc3ccc(F)c(Cl)c3)c2cc1NC(=O)/C=C/c1cc(OC)c(OC)c(OC)c1", "measured on": "MCF7", "assay result": "Not Active"}
{"compound structure string": "COc1cc2ncnc(Nc3ccc(F)c(Cl)c3)c2cc1NC(=O)/C=C/c1ccc(C#N)cc1", "measured on": "MCF7", "assay result": "Not Active"}

* * *

Experiment: Cytotoxicity against human PC3 cells after 72 hrs by MTT assay
Format: functional, cell-based, PC-3
Settings: Homo sapiens, PC-3, 72 h; read-out: IC50
measurement label: pIC50
Scale explanation: pIC50 corresponds to minus log10 of a concentration expressed in moles per litre.

{"compound structure string": "COc1ccc(OC)c(/C=C/C(=O)Nc2cc3c(Nc4ccc(F)c(Cl)c4)ncnc3cc2O[C@H]2CCOC2)c1", "measurement label": "pIC50", "assay result": 5.06}
{"compound structure string": "COc1cc(/C=C/C(=O)Nc2cc3c(Nc4ccc(F)c(Cl)c4)ncnc3cc2O[C@H]2CCOC2)cc(OC)c1O", "measurement label": "pIC50", "assay result": 4.58}
{"compound structure string": "COc1ccc(/C=C/C(=O)Nc2cc3c(Nc4ccc(F)c(Cl)c4)ncnc3cc2OC)c(OC)c1", "measurement label": "pIC50", "assay result": 4.41}

[ask] Item `O=C(/C=C/c1cc(Br)c(O)c(Br)c1)Nc1cc2c(Nc3ccc(F)c(Cl)c3)ncnc2cc1O[C@H]1CCOC1` : provide pIC50
[reply] 4.59

[ask] Item `COc1ccc(/C=C/C(=O)Nc2cc3c(Nc4ccc(F)c(Cl)c4)ncnc3cc2O[C@H]2CCOC2)c(OC)c1OC` : provide pIC50
[reply] 5.12
